So I've got a bunch of compounds here, and I need their Dmax (%) H1975 # 28 DTC values.
- System: EGFR Del19/T790M/C797S (H1975-clone #28)
- Test method notes: EGFR degradation HTRF assay, H1975-clone #28 DTC cells
- Format: cell-based
- Test parameters: H1975 # 28 DTC cells; maximum percentage of inhibition (degradation)
Give bare numbers, in %.

// each compound listed below needs its Dmax (%) H1975 # 28 DTC
1. CCOc1cc(N2CCC(N3CCN(CC4CN(c5cccc6c5oc(=O)n6C5CCC(=O)NC5=O)C4)CC3)CC2)c(CC)cc1Nc1ncc(Br)c(Nc2ccc3nc(CC)ccc3c2P(C)(C)=O)n1 (centres unmarked) [Example 497]
2. CCc1cc(Nc2ncc(Br)c(Nc3ccc4nc(C)ccc4c3P(C)(C)=O)n2)c(OC)cc1N1CCC(N2CCN(C(=O)C3CN(c4cccc5c4C(C)(C)C(=O)N5C4CCC(=O)NC4=O)C3)CC2)CC1 (centres unmarked) [Example 507]
3. CCOc1cc(N2CCC(N3CCN(CCc4ccc5c(c4)oc(=O)n5C4CCC(=O)NC4=O)CC3)CC2)c(CC)cc1Nc1ncc(Br)c(Nc2ccc3nc(C)ccc3c2P(C)(C)=O)n1 (centres unmarked) [Example 676]
4. CCOc1cc(N2CCC(N3CCN(CCc4c(F)ccc5c4n(CC)c(=O)n5C4CCC(=O)NC4=O)CC3)CC2)c(CC)cc1Nc1ncc(Br)c(Nc2ccc3nc(CC)ccc3c2P(C)(C)=O)n1 (centres unmarked) [Example 558]

**A:**
1: 80.94; 2: 68.8; 3: 88.89; 4: 85.18

###

Kindly supply the reported DC50 values for the records listed here.
- Tested on: EGFR L858R/T790M/C797S (BaF3-LTC cells) (Homo sapiens, UniProt P00533, C797S/L858R/T790M)
- Construct: expressed in transfected cells; host or cells: BaF3
- Sequence (P00533 25-1210 T790M/C797S/L858R): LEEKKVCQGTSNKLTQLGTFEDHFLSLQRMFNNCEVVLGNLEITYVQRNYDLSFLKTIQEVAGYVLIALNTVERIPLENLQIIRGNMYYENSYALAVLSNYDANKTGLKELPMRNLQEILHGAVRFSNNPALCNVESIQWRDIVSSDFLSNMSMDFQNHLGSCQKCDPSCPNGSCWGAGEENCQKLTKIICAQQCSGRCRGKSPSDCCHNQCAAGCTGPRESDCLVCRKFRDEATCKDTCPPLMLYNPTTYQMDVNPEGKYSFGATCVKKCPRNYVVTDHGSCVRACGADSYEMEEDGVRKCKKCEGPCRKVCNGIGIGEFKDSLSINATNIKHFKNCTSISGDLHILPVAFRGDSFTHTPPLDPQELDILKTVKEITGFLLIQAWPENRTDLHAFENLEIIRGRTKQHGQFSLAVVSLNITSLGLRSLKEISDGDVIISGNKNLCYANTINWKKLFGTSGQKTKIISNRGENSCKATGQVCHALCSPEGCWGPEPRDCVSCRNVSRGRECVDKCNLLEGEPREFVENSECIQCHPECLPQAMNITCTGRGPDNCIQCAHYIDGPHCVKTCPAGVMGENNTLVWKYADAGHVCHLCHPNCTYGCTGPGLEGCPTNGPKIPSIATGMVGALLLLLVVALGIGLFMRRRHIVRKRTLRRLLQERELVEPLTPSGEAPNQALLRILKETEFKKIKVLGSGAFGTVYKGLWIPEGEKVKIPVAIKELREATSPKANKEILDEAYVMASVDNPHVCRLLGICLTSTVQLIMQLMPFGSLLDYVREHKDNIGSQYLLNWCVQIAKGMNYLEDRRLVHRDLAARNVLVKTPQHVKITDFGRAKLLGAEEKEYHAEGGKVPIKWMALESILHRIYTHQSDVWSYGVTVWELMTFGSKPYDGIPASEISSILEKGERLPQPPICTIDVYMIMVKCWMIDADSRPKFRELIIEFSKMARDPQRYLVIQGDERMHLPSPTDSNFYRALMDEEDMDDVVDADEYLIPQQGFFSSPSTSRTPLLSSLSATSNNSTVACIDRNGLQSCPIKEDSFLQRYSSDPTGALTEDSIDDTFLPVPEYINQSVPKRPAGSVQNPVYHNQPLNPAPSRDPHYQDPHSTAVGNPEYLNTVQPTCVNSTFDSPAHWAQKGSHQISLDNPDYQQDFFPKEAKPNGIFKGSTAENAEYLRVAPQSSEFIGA
- Test method notes: EGFR degradation HTRF assay, BaF3-LTC cells
- Assay type: cell-based
- Test parameters: read-out: DC50(nM) BaF3-LTC; BaF3-LTC cells; EGFR degradation, IC50 (DC50) from curve fit
Numbers only, in nM.

[
  {
    "Molecule": "CCOc1cc(N2CCC(N3CCN(CCCc4cc(F)cc5c4oc(=O)n5C4CCC(=O)NC4=O)CC3)CC2)c(CC)cc1Nc1ncc(Br)c(Nc2ccc3nc(CC)ncc3c2P(C)(C)=O)n1 (stereo not drawn) [Example 617]",
    "Unit abbreviation": "nM",
    "DC50": 5.77
  }
]

For the 7 molecules below, give their DC50 values.
1. CCOc1cc(N2CCC(N3CCN(C(=O)[C@@H]4CCN(c5cc(F)cc6c5oc(=O)n6C5CCC(=O)NC5=O)C4)CC3)CC2)c(CC)cc1Nc1ncc(Br)c(Nc2ccc3nc(CC)ccc3c2P(C)(C)=O)n1 (stereo partly drawn) [Example 477]
2. CCOc1cc(N2CCC(N3CCN(C(=O)[C@@H]4CCN(c5cccc6c5oc(=O)n6C5CCC(=O)NC5=O)C4)CC3)CC2)c(CC)cc1Nc1ncc(Br)c(Nc2ccc3nc(CC)ccc3c2P(C)(C)=O)n1 (stereo partly drawn) [Example 445]
3. CCc1ccc2c(P(C)(C)=O)c(Nc3nc(Nc4cc(CC)c(N5CCC(N6CCN(C(=O)Cc7ccc8c(c7)oc(=O)n8C7CCC(=O)NC7=O)CC6)CC5)cc4OC)ncc3Br)ccc2n1 (stereo not drawn) [Example 669]
4. CCc1cc(Nc2ncc(Br)c(Nc3ccc4nc(C)ccc4c3P(C)(C)=O)n2)c(OC)cc1N1CCC(N2CCN(C(=O)C3CN(c4cccc5c4oc(=O)n5C4CCC(=O)NC4=O)C3)CC2)CC1 (stereo not drawn) [Example 519]
5. CCOc1cc(N2CCC(N3CCN(CCCc4cccc5c4oc(=O)n5C4CCC(=O)NC4=O)CC3)CC2)c(CC)cc1Nc1ncc(Br)c(Nc2ccc3nc(CC)ncc3c2P(C)(C)=O)n1 (stereo not drawn) [Example 615]
6. CCOc1cc(N2CCC(N3CCN(C(=O)[C@@H]4CCN(c5cccc6c5oc(=O)n6C5CCC(=O)NC5=O)C4)CC3)CC2)c(CC)cc1Nc1ncc(Br)c(Nc2ccc3nc(CC)ccc3c2P(C)(C)=O)n1 (stereo partly drawn) [Example 478]
7. CCOc1cc(N2CCC(N3CCN(CCc4cc5oc(=O)n(C6CCC(=O)NC6=O)c5cc4F)CC3)CC2)c(CC)cc1Nc1ncc(Br)c(Nc2ccc3nc(CC)ncc3c2P(C)(C)=O)n1 (stereo not drawn) [Example 565]

**A:**
1. 7.16
2. 5.24
3. 4.06
4. 1.19
5. 7.91
6. 3.05
7. 3.92

**Q:** Given the molecule CCOc1cc(N2CCC(N3CCN(C(=O)CCC4CN(c5cccc6c5oc(=O)n6C5CCC(=O)NC5=O)C4)CC3)CC2)c(CC)cc1Nc1ncc(Br)c(Nc2ccc3nc(CC)ccc3c2P(C)(C)=O)n1 (stereo not drawn) [Example 625] , what is its reported DC50?
**A:** 11

###

- Tested on: EGFR L858R/T790M/C797S (BaF3-LTC cells) (Homo sapiens, UniProt P00533, C797S/L858R/T790M)
- Construct: expressed in transfected cells; host or cells: BaF3
- Test method notes: EGFR degradation HTRF assay, BaF3-LTC cells
- Type: cell-based
- Test parameters: BaF3-LTC cells; EGFR degradation, IC50 (DC50) from curve fit; read-out: DC50(nM) BaF3-LTC
Exercise: state measured DC50 for each of the molecules provided.
Numbers only, in nM.

[
  {
    "Molecule": "CCc1ncc2c(P(C)(C)=O)c(Nc3nc(Nc4cc(CC)c(N5CCC(N6CCN(C(=O)[C@@H]7CCN(c8cc(F)c([C@H]9CCC(=O)NC9=O)c(F)c8)C7)CC6)CC5)cc4OC)ncc3Br)ccc2n1",
    "DC50, nM": 3.1
  }
]

Below is a list of molecules. For each, state its recorded DC50.
1. CCOc1cc(N2CCC(N3CCN(CCc4c(F)ccc5c4oc(=O)n5C4CCC(=O)NC4=O)CC3)CC2)c(CC)cc1Nc1ncc(Br)c(Nc2ccc3nc(CC)ccc3c2P(C)(C)=O)n1 (stereo not shown)
2. CCOc1cc(N2CCC(N3CCN(CC4CN(c5cc(F)cc6c5n(C)c(=O)n6C5CCC(=O)NC5=O)C4)CC3)CC2)c(CC)cc1Nc1ncc(Br)c(Nc2ccc3nc(CC)ccc3c2P(C)(C)=O)n1 (stereo not shown)

**A:**
36
12.5

###

Give measured Dmax for each item. Keep answers brief.
- Tested on: EGFR L858R/T790M/C797S (BaF3-LTC cells) (Homo sapiens, UniProt P00533, C797S/L858R/T790M)
- Construct: expressed in transfected cells; host or cells: BaF3
- Test method notes: EGFR degradation HTRF assay, BaF3-LTC cells
- Type: cell-based
- Test parameters: BaF3-LTC cells; maximum percentage of inhibition (degradation); read-out: Dmax (%) BaF3-LTC
Numbers only, in %.

Completed entries (count: 4):
[
  {
    "Compound": "CCOc1cc(N2CCC(N3CCN(CCCc4cccc5c4oc(=O)n5C4CCC(=O)NC4=O)CC3)CC2)c(CC)cc1Nc1ncc(Br)c(Nc2ccc3nc(CC)ccc3c2P(C)(C)=O)n1 (centres unmarked) [Example 630]",
    "Measured value": 91
  },
  {
    "Compound": "CCc1cc(Nc2ncc(Br)c(Nc3ccc4ncncc4c3P(C)(C)=O)n2)c(OC)cc1N1CCC(N2CCN(C(=O)[C@@H]3CCN(c4cc(F)c([C@H]5CCC(=O)NC5=O)c(F)c4)C3)CC2)CC1 [Example 668]",
    "Measured value": 91.5
  },
  {
    "Compound": "CCc1ccc2c(P(C)(C)=O)c(Nc3nc(Nc4cc(CC)c(N5CCC(N6CCN(CCc7ccc8c(oc(=O)n8C8CCC(=O)NC8=O)c7F)CC6)CC5)cc4OC)ncc3Br)ccc2n1 (centres unmarked) [Example 458]",
    "Measured value": 88.3
  },
  {
    "Compound": "CCc1cc(Nc2ncc(Br)c(Nc3cc(F)c4nc(C)ccc4c3P(C)(C)=O)n2)c(OC)cc1N1CCC(N2CCN(C(=O)[C@@H]3CCN(c4cc(F)c([C@H]5CCC(=O)NC5=O)c(F)c4)C3)CC2)CC1 [Example 511]",
    "Measured value": 92.5
  }
]

**Q:** Query: Dmax; subject: CCOc1cc(N2CCC(N3CCN(CCc4cc(F)c([C@H]5CCC(=O)NC5=O)c(F)c4)CC3)CC2)c(CC)cc1Nc1ncc(Br)c(Nc2cc(F)c3nc(C)ccc3c2P(C)(C)=O)n1 [Example 534]
**A:** 93.7

###

- Tested on: EGFR L858R/T790M/C797S (BaF3-LTC cells) (Homo sapiens, UniProt P00533, C797S/L858R/T790M)
- Construct: expressed in transfected cells; host or cells: BaF3
- Test method notes: EGFR degradation HTRF assay, BaF3-LTC cells
- Format: cell-based
- Test parameters: BaF3-LTC cells; maximum percentage of inhibition (degradation); read-out: Dmax (%) BaF3-LTC
Provide the reported Dmax of each item.
Give bare numbers, in %.

Each of the following entries comes with a recorded value; kindly state Dmax for each.
1. CCc1cc(Nc2ncc(Br)c(Nc3ccc4nc(C)ccc4c3P(C)(C)=O)n2)c(OC)cc1N1CCC(N2CCN(CCc3cc(F)c(C4CCC(=O)NC4=O)c(F)c3)[C@@H](C)C2)CC1 (some centres unmarked) [Example 693]
2. CCc1cc(Nc2ncc(Br)c(Nc3ccc4c(=O)n(C5CC5)ncc4c3P(C)(C)=O)n2)c(OC)cc1N1CCC(N2CCN(CCc3ccc4c(c3)oc(=O)n4C3CCC(=O)NC3=O)CC2)CC1 (centres unmarked) [Example 522]
3. CCOc1cc(N2CCC(N3CCN(C[C@H]4CCN(c5cccc6c5oc(=O)n6C5CCC(=O)NC5=O)C4)CC3)CC2)c(CC)cc1Nc1ncc(Br)c(Nc2ccc3nc(CC)ccc3c2P(C)(C)=O)n1 (some centres unmarked) [Example 561]

**A:**
1: 84.5; 2: 95.3; 3: 89.5

Give measured Dmax for every item shown.
1. CCOc1cc(N2CCC(N3CCN(CC4CN(c5cc(F)cc6c5n(C)c(=O)n6C5CCC(=O)NC5=O)C4)CC3)CC2)c(CC)cc1Nc1ncc(Br)c(Nc2ccc3nc(CC)ccc3c2P(C)(C)=O)n1 (centres unmarked) [Example 467]
2. CCc1cc(Nc2ncc(Br)c(Nc3ccc4nc(C)ccc4c3P(C)(C)=O)n2)c(OC2CC2)cc1N1CCC(N2CCN(C(=O)[C@@H]3CCN(c4cc(F)c([C@H]5CCC(=O)NC5=O)c(F)c4)C3)CC2)CC1 [Example 544]

**A:**
1. 91.3
2. 90.3
